Parameter: Formation of formazan dyes, absorbance, Means 0 h. Scope: all listed entries.
tested on: oral lavage; assay: Formation of formazan dyes: oral lavage, malate and diaphorase (TABLE 12); type: biochemical, human; conditions: oral lavage, malate and diaphorase; 0 h
Just the number.

# example entries with known answers
# MOLECULE, TEST_SYSTEM, REPORTED
measured = [
    ("Cc1nc(-[n+]2nc(-c3cccc(OCC(=O)O)c3)nn2-c2ccc(S(=O)(=O)[O-])cc2)sc1C [MTS]", "oral lavage", 0.68),
    ("COc1cc([N+](=O)[O-])ccc1-[n+]1nc(-c2ccc(S(=O)(=O)[O-])cc2S(=O)(=O)[O-])nn1-c1ccc([N+](=O)[O-])cc1.[Na+] [WST-8]", "oral lavage", 0.51),
    ("O=[N+]([O-])c1ccc(-[n+]2nc(-c3ccc(S(=O)(=O)[O-])cc3S(=O)(=O)[O-])nn2-c2ccc(I)cc2)cc1.[Na+] [WST-1]", "oral lavage", 0.88),
    ("COc1cc(-c2ccc(-[n+]3nc(-c4ccc(C(=O)N(CCS(=O)(=O)[O-])CCS(=O)(=O)[O-])cc4)nn3-c3nc4ccccc4s3)c(OC)c2)ccc1-[n+]1nc(-c2ccc(C(=O)N(CCS(=O)(=O)[O-])CCS(=O)(=O)[O-])cc2)nn1-c1nc2ccccc2s1.[Na+].[Na+] [WST-5]", "oral lavage", 0.57),
]

Q: For COc1cc([N+](=O)[O-])c(S(=O)(=O)[O-])cc1-n1nc(C(=O)Nc2ccccc2)n[n+]1-c1cc(S(=O)(=O)O)c([N+](=O)[O-])cc1OC [XTT] , what is its reported Formation of formazan dyes, absorbance, Means 0 h?
A: 0.75

---

tested on: diaphorase; test: Formation of formazan dyes: only diaphorase, not malate (TABLE 13); type: biochemical, Clostridium kluyveri; conditions: 12 h, mean of three experiments
Parameter: Absorbance, formation of formazan dyes (Means). Scope: all listed entries.
Just the number.

# STRUCTURE_SMILES, TEST_SYSTEM, REPORTED
records = [
    ("COc1cc([N+](=O)[O-])c(S(=O)(=O)[O-])cc1-n1nc(C(=O)Nc2ccccc2)n[n+]1-c1cc(S(=O)(=O)O)c([N+](=O)[O-])cc1OC", "diaphorase", 0.67),
    ("COc1cc(-c2ccc(-[n+]3nc(-c4ccc(C(=O)N(CCS(=O)(=O)[O-])CCS(=O)(=O)[O-])cc4)nn3-c3nc4ccccc4s3)c(OC)c2)ccc1-[n+]1nc(-c2ccc(C(=O)N(CCS(=O)(=O)[O-])CCS(=O)(=O)[O-])cc2)nn1-c1nc2ccccc2s1.[Na+].[Na+]", "diaphorase", 0.36),
    ("COc1cc([N+](=O)[O-])ccc1-[n+]1nc(-c2ccc(S(=O)(=O)[O-])cc2S(=O)(=O)[O-])nn1-c1ccc([N+](=O)[O-])cc1.[Na+]", "diaphorase", 0.47),
]

Q: For Cc1nc(-[n+]2nc(-c3cccc(OCC(=O)O)c3)nn2-c2ccc(S(=O)(=O)[O-])cc2)sc1C , what is its reported Absorbance, formation of formazan dyes (Means)?
A: 0.14

Q: For O=[N+]([O-])c1ccc(-[n+]2nc(-c3ccc(S(=O)(=O)[O-])cc3S(=O)(=O)[O-])nn2-c2ccc(I)cc2)cc1.[Na+] , what is its reported Absorbance, formation of formazan dyes (Means)?
A: 0.67

---

test system: Malate dehydrogenase and diaphorase; experiment: Formation of formazan dyes: Malate dehydrogenase, diaphorase and malate (TABLE 10); type: biochemical, pig heart; conditions: Malate dehydrogenase, diaphorase and malate; 12 h
Parameter: Formation of formazan dyes, absorbance, Means 12 h. Scope: all listed entries.
Just the number.

# STRUCTURE_SMILES, REPORTED
data = [
    ("COc1cc(-c2ccc(-[n+]3nc(-c4ccc(C(=O)N(CCS(=O)(=O)[O-])CCS(=O)(=O)[O-])cc4)nn3-c3nc4ccccc4s3)c(OC)c2)ccc1-[n+]1nc(-c2ccc(C(=O)N(CCS(=O)(=O)[O-])CCS(=O)(=O)[O-])cc2)nn1-c1nc2ccccc2s1.[Na+].[Na+]", 2.60),
]

Q: Lab request: please report Formation of formazan dyes, absorbance, Means 12 h under test system Malate dehydrogenase and diaphorase for O=[N+]([O-])c1ccc(-[n+]2nc(-c3ccc(S(=O)(=O)[O-])cc3S(=O)(=O)[O-])nn2-c2ccc(I)cc2)cc1.[Na+]
A: 1.96

Q: Lab request: please report Formation of formazan dyes, absorbance, Means 12 h under test system Malate dehydrogenase and diaphorase for COc1cc([N+](=O)[O-])c(S(=O)(=O)[O-])cc1-n1nc(C(=O)Nc2ccccc2)n[n+]1-c1cc(S(=O)(=O)O)c([N+](=O)[O-])cc1OC
A: 3.80

Q: Lab request: please report Formation of formazan dyes, absorbance, Means 12 h under test system Malate dehydrogenase and diaphorase for COc1cc([N+](=O)[O-])ccc1-[n+]1nc(-c2ccc(S(=O)(=O)[O-])cc2S(=O)(=O)[O-])nn1-c1ccc([N+](=O)[O-])cc1.[Na+]
A: 3.28

Q: Lab request: please report Formation of formazan dyes, absorbance, Means 12 h under test system Malate dehydrogenase and diaphorase for Cc1nc(-[n+]2nc(-c3cccc(OCC(=O)O)c3)nn2-c2ccc(S(=O)(=O)[O-])cc2)sc1C
A: 3.71

---

tested on: Malate dehydrogenase and diaphorase; assay: Formation of formazan dyes: Malate dehydrogenase and diaphorase, absence of malate (TABLE 9); assay type: biochemical, pig heart; conditions: malate dehydrogenase and diaphorase (TABLE 9)
MEASUREMENT_LABEL: reduction of tetrazolium dye in the absence of substrate malate

# STRUCTURE_SMILES, TEST_SYSTEM, REPORTED
data = [
    ("COc1cc([N+](=O)[O-])ccc1-[n+]1nc(-c2ccc(S(=O)(=O)[O-])cc2S(=O)(=O)[O-])nn1-c1ccc([N+](=O)[O-])cc1.[Na+]", "Malate dehydrogenase and diaphorase", "partially reduced"),
    ("COc1cc(-c2ccc(-[n+]3nc(-c4ccc(C(=O)N(CCS(=O)(=O)[O-])CCS(=O)(=O)[O-])cc4)nn3-c3nc4ccccc4s3)c(OC)c2)ccc1-[n+]1nc(-c2ccc(C(=O)N(CCS(=O)(=O)[O-])CCS(=O)(=O)[O-])cc2)nn1-c1nc2ccccc2s1.[Na+].[Na+]", "Malate dehydrogenase and diaphorase", "partially reduced"),
    ("O=[N+]([O-])c1ccc(-[n+]2nc(-c3ccc(S(=O)(=O)[O-])cc3S(=O)(=O)[O-])nn2-c2ccc(I)cc2)cc1.[Na+]", "Malate dehydrogenase and diaphorase", "partially reduced"),
]

---

test system: Malate dehydrogenase and diaphorase; assay: Formation of formazan dyes: Malate dehydrogenase, diaphorase and malate (TABLE 10); assay type: biochemical, pig heart; details: Malate dehydrogenase, diaphorase and malate; 0 h
Parameter: Formation of formazan dyes, absorbance, Means 0 h. Scope: all listed entries.
Just the number.

# example entries with known answers
# STRUCTURE_SMILES, REPORTED
measured = [
    ("O=[N+]([O-])c1ccc(-[n+]2nc(-c3ccc(S(=O)(=O)[O-])cc3S(=O)(=O)[O-])nn2-c2ccc(I)cc2)cc1.[Na+]", 0.84),
    ("COc1cc(-c2ccc(-[n+]3nc(-c4ccc(C(=O)N(CCS(=O)(=O)[O-])CCS(=O)(=O)[O-])cc4)nn3-c3nc4ccccc4s3)c(OC)c2)ccc1-[n+]1nc(-c2ccc(C(=O)N(CCS(=O)(=O)[O-])CCS(=O)(=O)[O-])cc2)nn1-c1nc2ccccc2s1.[Na+].[Na+]", 0.75),
    ("COc1cc([N+](=O)[O-])ccc1-[n+]1nc(-c2ccc(S(=O)(=O)[O-])cc2S(=O)(=O)[O-])nn1-c1ccc([N+](=O)[O-])cc1.[Na+]", 1.13),
    ("Cc1nc(-[n+]2nc(-c3cccc(OCC(=O)O)c3)nn2-c2ccc(S(=O)(=O)[O-])cc2)sc1C", 1.72),
]

Could you now look at the following compound, please?
Q: For COc1cc([N+](=O)[O-])c(S(=O)(=O)[O-])cc1-n1nc(C(=O)Nc2ccccc2)n[n+]1-c1cc(S(=O)(=O)O)c([N+](=O)[O-])cc1OC , what is its reported Formation of formazan dyes, absorbance, Means 0 h?
A: 1.21

---

system: diaphorase; assay: Formation of formazan dyes: NADH, diaphorase and malate (TABLE 8); type: biochemical, Clostridium kluyveri; conditions: NADH, diaphorase and malate; 2 h
MEASUREMENT_LABEL: Formation of formazan dyes, absorbance, Means 2 h
Just the number.

# example entries with known answers
# STRUCTURE_SMILES, REPORTED
records = [
    ("COc1cc([N+](=O)[O-])c(S(=O)(=O)[O-])cc1-n1nc(C(=O)Nc2ccccc2)n[n+]1-c1cc(S(=O)(=O)O)c([N+](=O)[O-])cc1OC", 2.18),
    ("O=[N+]([O-])c1ccc(-[n+]2nc(-c3ccc(S(=O)(=O)[O-])cc3S(=O)(=O)[O-])nn2-c2ccc(I)cc2)cc1.[Na+]", 2.59),
    ("COc1cc(-c2ccc(-[n+]3nc(-c4ccc(C(=O)N(CCS(=O)(=O)[O-])CCS(=O)(=O)[O-])cc4)nn3-c3nc4ccccc4s3)c(OC)c2)ccc1-[n+]1nc(-c2ccc(C(=O)N(CCS(=O)(=O)[O-])CCS(=O)(=O)[O-])cc2)nn1-c1nc2ccccc2s1.[Na+].[Na+]", 2.44),
    ("COc1cc([N+](=O)[O-])ccc1-[n+]1nc(-c2ccc(S(=O)(=O)[O-])cc2S(=O)(=O)[O-])nn1-c1ccc([N+](=O)[O-])cc1.[Na+]", 3.47),
]

Could you now look at the following compound, please?
Q: Lab request: please report Formation of formazan dyes, absorbance, Means 2 h under test system diaphorase for Cc1nc(-[n+]2nc(-c3cccc(OCC(=O)O)c3)nn2-c2ccc(S(=O)(=O)[O-])cc2)sc1C
A: 3.00
